Tested target: affinity purified β2GPI-dependent antiphospholipid antibody
Assay overview: Competitive inhibition ELISA: recombinant β2GPI proteins compete for antibody binding to coated full length recombinant β2GPI
Set-up: species or system human
Measurement conditions: Ab 6701; read-out: 50% (concentration to give 50% inhibition)
pIC50: −log10 of the molar value.

{"columns": ["Molecule", "pIC50"],
 "data": [
  ["1234-: recombinant β2GPI deletion mutant with domains 1, 2, 3, 4 (protein) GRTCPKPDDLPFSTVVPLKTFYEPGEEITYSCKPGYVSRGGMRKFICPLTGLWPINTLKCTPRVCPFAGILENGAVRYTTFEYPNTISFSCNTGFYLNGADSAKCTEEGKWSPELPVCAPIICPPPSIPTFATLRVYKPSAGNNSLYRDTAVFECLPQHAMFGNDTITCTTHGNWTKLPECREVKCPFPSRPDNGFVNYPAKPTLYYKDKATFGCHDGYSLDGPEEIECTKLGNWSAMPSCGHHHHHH", "< 5.10"],
  ["123--: recombinant β2GPI deletion mutant with domains 1, 2, 3 (protein) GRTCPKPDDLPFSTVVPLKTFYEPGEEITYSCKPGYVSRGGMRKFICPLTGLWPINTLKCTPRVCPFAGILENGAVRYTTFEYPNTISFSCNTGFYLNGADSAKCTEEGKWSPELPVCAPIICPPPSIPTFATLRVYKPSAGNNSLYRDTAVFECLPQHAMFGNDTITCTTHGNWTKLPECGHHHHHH", 6.52],
  ["---45: recombinant β2GPI deletion mutant with domains 4, 5 (protein) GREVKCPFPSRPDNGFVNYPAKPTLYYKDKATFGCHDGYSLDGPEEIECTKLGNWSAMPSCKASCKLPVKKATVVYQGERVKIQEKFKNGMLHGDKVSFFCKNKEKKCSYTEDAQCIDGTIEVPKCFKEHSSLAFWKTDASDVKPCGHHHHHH", "< 5.30"]
]}
